test: qHTS assay for small molecules that induce genotoxicity in human embryonic kidney cells expressing luciferase-tagged ATAD5 (AID 651632); note: nearly all actives have a fitted effect of over 15% in size
test parameters: HEK293T ATAD5-luciferase induction, 16 h; series mostly up to 83.3 µM
Excerpt: U.S. Tox21 Program National Center for Advancing Translational Sciences [NCATS] NIH Chemical Genomics Center [NCGC] U.S. Environmental Protection Agency [EPA] National Institutes of Environmental Health Sciences [NIEHS] National Toxicology Program [NTP] U.S. Food and Drug Administration [FDA] Tox21 Assay Overview: As cancer cells divide rapidly and during every cell division they need to duplicate their genome by DNA replication. The failure to do so results in the cancer cell death. […]
Records with an inconclusive call do not appear. Activity calls are given as the source filed them. Calls come from the whole dose curve; as a rule, active = well fitted activation curve with a large enough effect in the repeat runs; inconclusive = weak or mixed curves; inactive = no such curve, though single readings can be large or run the other way.
Answer with one of the outcomes label 1 = active, label 0 = inactive

In: Entry CN1CCN(CCCN2c3ccccc3Sc3ccc(C(F)(F)F)cc32)CC1 : call = ?
Out: label 0

In: Entry CC[C@H](C)C(=O)O[C@H]1CCC=C2C=C[C@H](C)[C@H](CC[C@@H]3C[C@@H](O)CC(=O)O3)[C@H]21 : call = ?
Out: label 0

In: Entry CC1CCCC(C)N1NC(=O)c1ccc(Cl)c(S(N)(=O)=O)c1 (stereo unspecified) : call = ?
Out: label 0

In: Entry O=C1c2c(O)cccc2[C@H]([C@@H]2O[C@H](CO)[C@@H](O)[C@H](O)[C@H]2O)c2cc(CO)cc(O)c21 : call = ?
Out: label 0

In: Entry CCC(NC(C)C)C(O)c1ccc(O)c(O)c1 (stereo unspecified) : call = ?
Out: label 0

In: Entry N[C@H](C(=O)O)[C@@H]1CC(Cl)=NO1 : call = ?
Out: label 0

In: Entry Cc1ccc2nc(-c3ccc(N)cc3)sc2c1S(=O)(=O)O : call = ?
Out: label 1

In: Entry C[S+](CC[C@H](N)C(=O)O)C[C@H]1O[C@@H](n2cnc3c(N)ncnc32)[C@H](O)[C@@H]1O (stereo partly specified) : call = ?
Out: label 0

In: Entry CC[N+](CC)(CC)CCC(O)(c1ccccc1)C1CCCCC1 (stereo unspecified) : call = ?
Out: label 0

In: Entry CC(=O)OCC(=O)[C@@]1(O)CC[C@H]2[C@@H]3C[C@H](C)C4=CC(=O)C=C[C@]4(C)[C@H]3[C@@H](O)C[C@@]21C : call = ?
Out: label 0

In: Entry CCCC(=O)c1cc(O)c(O)cc1O : call = ?
Out: label 0

In: Entry CCSCC : call = ?
Out: label 0

In: Entry NCCCC[C@H](NC(=O)[C@@H]1CCCN1C(=O)[C@@H]1CSSC[C@H](N)C(=O)N[C@@H](Cc2ccc(O)cc2)C(=O)N[C@@H](Cc2ccccc2)C(=O)N[C@@H](CCC(N)=O)C(=O)N[C@@H](CC(N)=O)C(=O)N1)C(=O)NCC(N)=O : call = ?
Out: label 0

In: Entry C=C1[C@H](CO)[C@@H](O)C[C@@H]1n1cnc2c(=O)[nH]c(N)nc21 : call = ?
Out: label 0

In: Entry SC1CCCCC1 : call = ?
Out: label 0

In: Entry Cc1ncc(C[n+]2csc(CCOP(=O)(O)O)c2C)c(N)n1 : call = ?
Out: label 0

In: Entry O=C1CCC(c2ccc(-n3ccnc3)cc2)=NN1 : call = ?
Out: label 0

In: Entry CC(O)(c1ccc(Cl)cc1)c1ccc(Cl)cc1 : call = ?
Out: label 0

In: Entry O=C(O)/C=C/C(O)c1ccc(Cl)cc1 (stereo unspecified) : call = ?
Out: label 0

In: Entry COC(=O)[C@H]1[C@H]2C[C@H]3c4[nH]c5ccccc5c4CCN3C[C@H]2CC[C@@H]1O : call = ?
Out: label 0

In: Entry CCN(CC)CCNC(=O)c1ccc(NS(C)(=O)=O)cc1 : call = ?
Out: label 0
